These entries and their values trace back to patent US12331044B2.

molecular target: human HDAC3/SMRT heterodimer (Homo sapiens (Human), UniProt O15379)
Sequence (O15379 whole entry): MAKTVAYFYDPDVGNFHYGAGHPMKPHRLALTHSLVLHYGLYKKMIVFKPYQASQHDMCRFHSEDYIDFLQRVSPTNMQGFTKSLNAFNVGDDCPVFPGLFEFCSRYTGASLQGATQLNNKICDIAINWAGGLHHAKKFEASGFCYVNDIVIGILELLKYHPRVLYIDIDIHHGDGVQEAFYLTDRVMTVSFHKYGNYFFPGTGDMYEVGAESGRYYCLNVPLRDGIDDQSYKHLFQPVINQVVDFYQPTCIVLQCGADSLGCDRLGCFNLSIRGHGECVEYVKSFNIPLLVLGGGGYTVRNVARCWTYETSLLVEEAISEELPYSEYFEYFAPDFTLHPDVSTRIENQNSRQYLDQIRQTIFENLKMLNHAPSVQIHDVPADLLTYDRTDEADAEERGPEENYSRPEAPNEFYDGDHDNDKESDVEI
Sequence (Q9Y618 1-899 partner): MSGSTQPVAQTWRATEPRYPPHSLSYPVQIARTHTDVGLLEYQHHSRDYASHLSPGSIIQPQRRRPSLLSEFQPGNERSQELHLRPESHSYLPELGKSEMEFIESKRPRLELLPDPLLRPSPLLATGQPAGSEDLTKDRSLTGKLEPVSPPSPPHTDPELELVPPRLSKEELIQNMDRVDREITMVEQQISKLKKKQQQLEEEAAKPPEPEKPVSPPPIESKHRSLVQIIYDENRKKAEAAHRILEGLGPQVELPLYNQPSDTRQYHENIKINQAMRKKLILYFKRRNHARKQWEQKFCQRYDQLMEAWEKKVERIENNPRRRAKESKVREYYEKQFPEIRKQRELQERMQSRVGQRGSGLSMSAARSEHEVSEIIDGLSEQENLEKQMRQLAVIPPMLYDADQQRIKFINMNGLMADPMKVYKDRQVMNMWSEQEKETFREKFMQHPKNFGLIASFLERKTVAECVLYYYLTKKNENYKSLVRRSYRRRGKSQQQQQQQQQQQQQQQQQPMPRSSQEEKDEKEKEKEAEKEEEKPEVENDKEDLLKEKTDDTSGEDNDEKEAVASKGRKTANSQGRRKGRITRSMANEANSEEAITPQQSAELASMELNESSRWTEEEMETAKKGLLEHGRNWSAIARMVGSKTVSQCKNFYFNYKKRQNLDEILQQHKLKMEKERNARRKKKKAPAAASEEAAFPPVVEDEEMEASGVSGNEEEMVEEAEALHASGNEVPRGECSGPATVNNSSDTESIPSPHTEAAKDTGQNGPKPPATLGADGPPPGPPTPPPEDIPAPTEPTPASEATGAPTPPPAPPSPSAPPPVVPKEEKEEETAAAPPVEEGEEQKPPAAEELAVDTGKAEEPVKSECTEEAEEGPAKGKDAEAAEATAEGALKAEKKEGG
pIC50: −log10 of the molar value.
So basically: pIC50 at 9 or higher? That is YES. Lower than 9? That is NO.

STRUCTURE_SMILES: CN1CCC2(CC1)C[C@@H]2C(=O)N[C@@H](CCCCCC(=O)c1ncco1)c1oc(-c2ccc(F)cc2)nc1C#N
CLASS_NAME: NO

STRUCTURE_SMILES: Cn1cc2cc(-n3ccc([C@H](N)CCCCCC(=O)c4ncco4)n3)ccc2n1
CLASS_NAME: NO

STRUCTURE_SMILES: CCN1CCC2(CC1)C[C@@H]2C(=O)N[C@@](C)(CCCCCC(=O)c1ccon1)c1ncc(-c2ccccc2F)[nH]1
CLASS_NAME: YES

STRUCTURE_SMILES: Cc1ccc2cc(-c3c[nH]c([C@H](CCCCCC(=O)c4ccon4)NC(=O)[C@H]4CC45CCN(C)CC5)n3)ccc2n1
CLASS_NAME: YES

STRUCTURE_SMILES: N[C@@H](CCCCCC(=O)c1ncco1)c1ncc(-c2cccc(C(F)(F)F)c2F)[nH]1
CLASS_NAME: NO

STRUCTURE_SMILES: Cn1cc2cc(-n3ccc([C@@H](N)CCCCCC(=O)c4ncco4)n3)ccc2n1
CLASS_NAME: NO

STRUCTURE_SMILES: N[C@@H](CCCCCC(=O)c1ncco1)c1ncc(-c2cccc(F)c2F)[nH]1
CLASS_NAME: NO

STRUCTURE_SMILES: CN1CCC2(CC1)C[C@@H]2C(=O)N[C@@H](CCCCCC(=O)c1ccon1)c1nc(-c2ccccc2F)c[nH]1
CLASS_NAME: YES

STRUCTURE_SMILES: CN1CCC2(CC1)C[C@@H]2C(=O)N[C@@H](CCCCCC(=O)c1ccon1)c1nc(Cl)c(-c2ccc(F)cc2)[nH]1
CLASS_NAME: YES

STRUCTURE_SMILES: CN1CCC2(CC1)C[C@@H]2C(=O)N[C@@H](CCCCCC(=O)c1ncco1)c1[nH]c(-c2ccc(F)cc2)nc1C#N
CLASS_NAME: YES
